Parameter: binding response (% of control). Scope: all listed entries.
TEST SYSTEM: Guanine nucleotide-binding protein G(o) subunit alpha (Homo sapiens) (UniProt P09471)
Sequence (P09471 whole entry, looked up): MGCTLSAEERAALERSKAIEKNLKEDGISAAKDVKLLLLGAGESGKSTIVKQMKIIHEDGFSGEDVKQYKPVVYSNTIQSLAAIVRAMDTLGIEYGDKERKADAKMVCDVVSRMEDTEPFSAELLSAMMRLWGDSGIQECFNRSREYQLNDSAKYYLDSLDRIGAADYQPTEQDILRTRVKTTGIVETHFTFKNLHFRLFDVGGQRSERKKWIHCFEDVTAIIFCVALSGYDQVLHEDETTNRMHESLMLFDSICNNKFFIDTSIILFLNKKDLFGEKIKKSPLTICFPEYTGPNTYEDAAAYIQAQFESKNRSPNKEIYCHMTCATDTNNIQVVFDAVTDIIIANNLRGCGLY
ASSAY INFO: modulators of RGS4 binding to Galphao, primary screen, biochemical, multiplexed bead flow cytometry (AID 1415);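 further: fluorescent Galphao activated with aluminum fluoride binding bead-coupled RGS4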
EXPERIMENTAL CONDITIONS: at 10 µM, actives lie on both sides
The campaign covered roughly 220,000 compounds. About 710 (0.32%) were called active. The full list was thinned out, with actives kept by preference.

Consider the worked cases shown below.
>>> print(df.to_string())
                                   compound                  recorded_metric             value
0        COCCCn1c(-c2cccs2)nc2nc3ccccc3nc21  binding response (% of control)   103% (inactive)
1  COc1cc(/C=C/C(=O)N2c3ccccc3Sc3ccc(C(F)(F)F)cc32)cc(OC)c1OC  binding response (% of control)   103% (inactive)
2       O=C(Nc1ccn(Cc2ccccc2)n1)c1cccc(F)c1  binding response (% of control)  97.8% (inactive)
3        COCCCNC(=O)CN1CCN(Cc2ccccc2Cl)C1=O  binding response (% of control)   103% (inactive)

Query block: Return reported binding response (% of control) for target or system Guanine nucleotide-binding protein G(o) subunit alpha (Homo sapiens) (UniProt P09471), item O=C(CN1CCCCCC1)N1c2ccccc2Sc2ccc(C(F)(F)F)cc21 .
Result block: 89.3% (inactive)

Query block: Return reported binding response (% of control) for target or system Guanine nucleotide-binding protein G(o) subunit alpha (Homo sapiens) (UniProt P09471), item CC(C)C(NS(=O)(=O)c1cccs1)C(=O)Nc1nc(C(C)(C)C)cs1 (stereo unspecified) .
Result block: 99% (inactive)

Query block: Return reported binding response (% of control) for target or system Guanine nucleotide-binding protein G(o) subunit alpha (Homo sapiens) (UniProt P09471), item CCOCCCNC(=O)C(NC(=O)c1ccc(=O)[nH]c1)c1ccc(Cl)cc1 (stereo unspecified) .
Result block: 98.1% (inactive)

Query block: Return reported binding response (% of control) for target or system Guanine nucleotide-binding protein G(o) subunit alpha (Homo sapiens) (UniProt P09471), item CN(c1ccccc1)c1ccc(/C=c2\s/c(=C(/C#N)C(=O)C(C)(C)C)n(Cc3ccco3)c2=O)cc1 .
Result block: 566% [activator] (active)

Query block: Return reported binding response (% of control) for target or system Guanine nucleotide-binding protein G(o) subunit alpha (Homo sapiens) (UniProt P09471), item CCCNC(=S)NC1CC2CCCC(C1)N2CC(C)C (stereo unspecified) .
Result block: 99.3% (inactive)

Query block: Return reported binding response (% of control) for target or system Guanine nucleotide-binding protein G(o) subunit alpha (Homo sapiens) (UniProt P09471), item Cc1ccc(Cn2ccc(NC(=O)c3cc(C(C)C)on3)n2)cc1 .
Result block: 49% (active)

Query block: Return reported binding response (% of control) for target or system Guanine nucleotide-binding protein G(o) subunit alpha (Homo sapiens) (UniProt P09471), item O=C(CN1CCCCC1)N1c2ccccc2Sc2ccc(C(F)(F)F)cc21 .
Result block: 21.1% (active)

All figures here come from PubChem BioAssay AID1415.
